From: patent US20080113926A1

A collection of molecules and their measured IC50
test system: Plasmodium falciparum clone CDC/Indochina III (W-2); assay: In vitro antimalarial [3H]-hypoxanthine incorporation serial dilution assay, W2; type: cell-based; settings: Plasmodium falciparum, W2, 72 h, P. falciparum W2, parasites exposed for 72 hours
Just the number in µg/mL, nothing appended.

Example molecules with recorded IC50:
[[record]]
molecule = "CC[C@H]1OC(=O)[C@H](C)[C@@H](O)[C@H](C)[C@@H](O[C@@H]2O[C@H](C)C[C@H](N(C)C)[C@H]2O)[C@](C)(O)C[C@@H](C)CN(CCCNC(=S)NCCCc2ccccc2)[C@H](C)[C@@H](O)[C@]1(C)O [Compound 28]"
observed_result = 0.41

[[record]]
molecule = "CC[C@H]1OC(=O)[C@H](C)[C@@H](O[C@H]2C[C@@](C)(OC)[C@@H](O)[C@H](C)O2)[C@H](C)[C@@H](O[C@@H]2O[C@H](C)C[C@H](N(C)C)[C@H]2O)[C@](C)(O)C[C@@H](C)CN(CCCNC(=O)Nc2ccccc2C(F)(F)F)[C@H](C)[C@@H](O)[C@]1(C)O [Compound 2]"
observed_result = 0.36


Turning now to a further molecule:
Value of IC50 reported for the molecule CC[C@H]1OC(=O)[C@H](C)[C@@H](O[C@H]2C[C@@](C)(OC)[C@@H](O)[C@H](C)O2)[C@H](C)[C@@H](O[C@@H]2O[C@H](C)C[C@H](N(C)C)[C@H]2O)[C@](C)(O)C[C@@H](C)CN(CCCN(CCC#N)C(=S)NCCc2ccccc2)[C@H](C)[C@@H](O)[C@]1(C)O [Compound 5] is 0.169
